# ASSAY_PROTOCOL: E. coli DRC41 culture turbidity changes, primary screen, E. coli filamentation inducer project, strain DRC41, OD650, 48 h (AID 1152);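 further: E. coli MC1000 strain DRC41 lacking acrAB efflux pump and sulA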
# SETUP_CONDITIONS: E. coli DRC41 (acrAB sulA), higher = more signal, called active from +8 up or from −8 down
Property: z-score; scope: individual compounds
MEASUREMENT_KIND: z-score

* C#CCN(CC1=CCCCC1)[C@H](c1ccccc1Br)[C@@H](O)Cc1ccccc1 | 1.5
* CCOC(=O)[C@H]1CC=C2CC1C(=O)N1CCC[C@@H]1[C@@H]2O[Si](C)(C)C(C)(C)C (stereo partly specified) | -0.94
* COc1ccc(CCN2C(=O)[C@@]3(c4ccc([N+](=O)[O-])cc4)CC(=O)N(C4CCCCC4)[C@@H]3c3ccc(CO)cc32)cc1 | -0.183
* C=CC[C@@]1(C(N)=O)N=C(c2ccc(OCCCO)cc2)O[C@@H]1c1ccccc1CN=[N+]=[N-] | 0.0347
* COC(=O)[C@@]1(Cc2ccccc2)[C@H]2c3cc(C(=O)N4CCCC4)n(CC4CC4)c3C[C@H]2CN1C(=O)c1ccccc1 | -1.47
* C=C(CCCC)/C(=C/C[C@@H](OC(C)=O)c1ccccc1OCCO)c1cnc2ccccc2c1 | -0.19
* COCCOC(=O)N1C(=O)[C@@]2(c3cc(C#Cc4ccc(OC)cc4)ccc31)[C@H](C(=O)N1CCCCCCC1)[C@H]1C(=O)O[C@H](c3ccccc3)[C@H](c3ccccc3)N1[C@@H]2c1ccc(OCCO)cc1 | 2.43
* COc1ccc([Si](C)(C)[C@H]2[C@H](CCn3cc([C@H](O)c4ccccc4)nn3)O[C@@]3(C(=O)N(Cc4cccc(N5CCOC5=O)c4)c4ccccc43)[C@@H]2C)cc1 | -0.454
* CN1C(=O)C2C=CC(C(O)c3cccs3)N(Nc3ccccc3)C2C1=O (stereo unspecified) | -1.6
* C=CCC(OC(C)=O)[C@@H]1[C@@H](N(Cc2ccc(-c3ccccc3)cc2)C(=O)Cc2ccc(F)cc2)c2cc(OCCCO)ccc2N1C(=O)c1ccc(-c2ccccc2)cc1 (stereo partly specified) | 2.08
* CC(C)N1C(=O)[C@@]2(Cc3ccccc31)c1ccccc1C(=O)N(C1CCCCC1)[C@H]2c1ccc(CO)cc1 | 0.04
* O=C1NC(=O)C2C1C=CC(C(O)C(c1ccccc1)c1ccccc1)N2Nc1ccc(Cl)cc1Cl (stereo unspecified) | -1.53
* O=C(C1N=C(c2ccc(OCCCO)cc2)N(c2ccccc2)O1)N1CCOCC1 (stereo unspecified) | 1.72
* C#CCNC(=O)[C@H](Cc1ccccc1)NC(=O)CCC(=O)O | -0.077
* CCCC#C[Si](O[C@H](CC)c1cn([C@H](CO)Cc2ccccc2)nn1)(C(C)C)C(C)C | 1.12
* COC(=O)[C@@]1(Cc2ccc(F)cc2)[C@H]2c3cc(C(=O)N(C)C)n(Cc4nc5ccccc5[nH]4)c3C[C@H]2CN1C(=O)c1ccccc1 | -0.827
